- assayed_target: Glutaminase kidney isoform, mitochondrial (Homo sapiens, UniProt O94925)
- Sequence (O94925 whole entry): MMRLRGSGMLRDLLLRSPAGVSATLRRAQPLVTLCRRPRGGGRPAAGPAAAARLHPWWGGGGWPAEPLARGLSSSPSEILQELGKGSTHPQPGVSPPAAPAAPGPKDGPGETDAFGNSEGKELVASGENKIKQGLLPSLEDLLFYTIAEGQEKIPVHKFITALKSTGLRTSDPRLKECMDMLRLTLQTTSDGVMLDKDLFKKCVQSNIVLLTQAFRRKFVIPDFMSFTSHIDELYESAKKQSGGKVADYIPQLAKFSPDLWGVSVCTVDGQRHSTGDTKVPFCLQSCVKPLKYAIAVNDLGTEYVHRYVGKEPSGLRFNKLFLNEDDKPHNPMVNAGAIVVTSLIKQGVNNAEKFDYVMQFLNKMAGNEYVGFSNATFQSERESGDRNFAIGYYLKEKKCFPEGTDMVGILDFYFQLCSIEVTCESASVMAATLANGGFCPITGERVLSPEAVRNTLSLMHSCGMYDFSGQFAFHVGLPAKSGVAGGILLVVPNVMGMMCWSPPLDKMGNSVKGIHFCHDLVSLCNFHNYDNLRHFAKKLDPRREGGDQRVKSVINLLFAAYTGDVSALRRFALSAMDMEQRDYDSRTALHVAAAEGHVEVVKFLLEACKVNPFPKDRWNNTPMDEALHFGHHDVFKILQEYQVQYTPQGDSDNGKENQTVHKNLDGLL
- assay_method_text: Inhibition of human recombinant GLS-1 by measuring glutamate production incubated for 1 hr by fluorescence based multimode plate reader method
measured_metric: EC50 (µM)

[[record]]
smiles_record = "Br.Fc1ccc2c(c1)c(-c1nc(-c3c[nH]c4ncccc34)cs1)cn2CCCCN1CCOCC1"
measured_metric = "EC50"
observed_measurement = 3.96

